Test system: RARg:RXRa (NR concentration 270 nM, RXRa partner concentration 90 nM)
Assay: PBM binding z-score (relative to random genomic background probes); higher = stronger binding; sequences stand for … in GC…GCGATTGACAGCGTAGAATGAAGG
Classify by measured PBM binding z-score: TRUE if it is equal to or exceeds 2, FALSE if it is smaller.

Confirm if PBM binding z-score reported for the sequence GCTCGGAAGACAAGGTCAGAGCTTTGTCCGTAGA is 2 or above. TRUE

Confirm if PBM binding z-score reported for the sequence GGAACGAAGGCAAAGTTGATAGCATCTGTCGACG is 2 or above. FALSE

Can GATACAGGGTCAGCTAGAGGCCAGAGAATGGAAA be said to have PBM binding z-score at or above 2? TRUE

Could you verify whether the entry AGAATGAGGTTACCAAAGATCGGGGAAACGCTTG shows PBM binding z-score of no less than 2? FALSE

Can CCTTACGGGTCACGGACAGGTTATAGCATTTGGA be said to have PBM binding z-score at or above 2? TRUE

Kindly determine if PBM binding z-score recorded for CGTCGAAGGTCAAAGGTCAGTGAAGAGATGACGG is above or exactly 2. TRUE
